test system: Proteus vulgaris
Friendly reminder: MIC below 60 µg/mL is y, at or above is n.

Request: Please determine if "C[C@@H]([C@@H](c1ccccc1)n1cc(COC(=O)c2ccccc2Cl)nn1)N1CCCC1" is below 60 µg/mL in terms of MIC.
Result: n

Request: Please check: MIC for "C[C@@H]([C@@H](c1ccccc1)n1cc(CO)nn1)N1CCCC1" , strictly under 60 µg/mL or not?
Result: n

Request: Check if MIC falls below 60 µg/mL for "C[C@@H]([C@@H](c1ccccc1)n1cc(COC(=O)C=Cc2ccccc2)nn1)N1CCCC1" .
Result: n

Request: Below 60 µg/mL on MIC? Entry "COc1ccc(C(=O)OCc2cn([C@H](c3ccccc3)[C@H](C)N3CCCC3)nn2)cc1OC"
Result: n

Request: Hello, I'm reviewing records and need to know if MIC of [H]/N=C(/N)N[C@H]1[C@H](O)[C@@H](O)[C@H](O[C@@H]2O[C@@H](C)[C@](O)(C=O)[C@H]2O[C@@H]2O[C@@H](CO)[C@H](O)[C@@H](O)[C@@H]2NC)[C@@H](N/C(N)=N\[H])[C@@H]1O [Streptomycin, reference compound] is below 60 µg/mL. Could you check?
Result: y

Request: # TODO verify MIC < 60 µg/mL strictly for this compound: "C[C@@H]([C@@H](c1ccccc1)n1cc(COC(=O)c2ccc([N+](=O)[O-])cc2)nn1)N1CCCC1"
Result: y

Request: Would you kindly verify if MIC of "Cc1cccc(C(=O)OCc2cn([C@H](c3ccccc3)[C@H](C)N3CCCC3)nn2)c1" is strictly less than 60 µg/mL?
Result: n

----------
tested on: Staphylococcus epidermidis
outcome.measure: log10(MIC) (log10 of the value in µg/mL)
# log10 transformed; quantity=MIC; unit=µg/mL

Reference set, count: 4
compound	outcome.measure	numeric.readout
C[C@@H]([C@@H](c1ccccc1)n1cc(COC(=O)C=Cc2ccccc2)nn1)N1CCCC1 [5c]	log10(MIC)	2.40
C[C@@H]([C@@H](c1ccccc1)n1cc(COC(=O)c2ccc([N+](=O)[O-])cc2)nn1)N1CCCC1 [5g]	log10(MIC)	1.49
COc1ccc(C(=O)OCc2cn([C@H](c3ccccc3)[C@H](C)N3CCCC3)nn2)cc1OC [5h]	log10(MIC)	2.10
CC(C(c1ccccc1)n1cc(COC(=O)c2ccc(C(C)(C)C)cc2)nn1)N1CCCC1 (stereo not drawn) [5i]	log10(MIC)	2.70

Summary line: C[C@@H]([C@@H](c1ccccc1)n1cc(CO)nn1)N1CCCC1 [5a] , Staphylococcus epidermidis, reported log10(MIC) = 2.40

log10(MIC) for Staphylococcus epidermidis with input Cc1cccc(C(=O)OCc2cn([C@H](c3ccccc3)[C@H](C)N3CCCC3)nn2)c1 [5j] equals 2.40

// returns log10(MIC) for C[C@@H]([C@@H](c1ccccc1)n1cc(COC(=O)c2ccccc2)nn1)N1CCCC1 [5d] with Staphylococcus epidermidis; value = 2.40

Measured log10(MIC) (Staphylococcus epidermidis), entry [H]/N=C(/N)N[C@H]1[C@H](O)[C@@H](O)[C@H](O[C@@H]2O[C@@H](C)[C@](O)(C=O)[C@H]2O[C@@H]2O[C@@H](CO)[C@H](O)[C@@H](O)[C@@H]2NC)[C@@H](N/C(N)=N\[H])[C@@H]1O [Streptomycin, reference compound] : 1.40

Tested on Staphylococcus epidermidis: CC([C@@H](c1ccccc1)n1cc(CN(C)[C@@H](C)Cc2ccccc2)nn1)N1CCCC1 (stereo partly drawn) [5f] . Observed log10(MIC): 2.10
